# Species on record: Homo sapiens
# EXPERIMENTAL_PROTOCOL: The compound was tested for inhibition of blood platelet aggregation induced by ADP; 100-250*10e-9
# Type: functional, organism-based
MEASUREMENT_LABEL: pIC50
Expect pIC50 as a plain number equal to -log10 of the molar concentration.

-- ask # get_value(readout='pIC50', item= CC#CCC(C)[C@H](O)/C=C/[C@H]1[C@H](O)C[C@]2(C#CCCCBr)C/C(=C/CCCC(=O)O)C[C@H]12 (stereo partly specified) )
-- reply 7.00

====

Some molecules, each annotated with its measured KF.
# TARGET: Prostacyclin receptor (Homo sapiens) (UniProt P43119)
# Sequence (P43119 whole entry): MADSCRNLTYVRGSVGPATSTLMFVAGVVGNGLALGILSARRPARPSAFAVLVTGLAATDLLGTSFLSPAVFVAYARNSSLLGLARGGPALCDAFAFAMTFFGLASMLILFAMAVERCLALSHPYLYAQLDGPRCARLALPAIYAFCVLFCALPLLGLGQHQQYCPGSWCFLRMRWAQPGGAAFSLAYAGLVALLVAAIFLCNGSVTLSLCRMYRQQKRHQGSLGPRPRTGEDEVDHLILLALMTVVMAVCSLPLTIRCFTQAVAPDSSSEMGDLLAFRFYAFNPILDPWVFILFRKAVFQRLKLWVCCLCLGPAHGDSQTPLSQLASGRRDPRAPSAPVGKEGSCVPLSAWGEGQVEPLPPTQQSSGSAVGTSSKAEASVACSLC
# EXPERIMENTAL_PROTOCOL: Affinity for Prostaglandin I2 receptor
# Design: unit not given here
Answer using only a numeral; do not append any unit.

Known results for molecules:
CC#CCC(C)[C@H](O)/C=C/[C@@H]1[C@H]2C/C(=C/CCCC(=O)O)C[C@H]2C[C@H]1O (stereo in doubt; 1)	1
CC#CCC(C)[C@H](O)/C=C/[C@H]1[C@H](O)C[C@]2(C#CCCCN=[N+]=[N-])C/C(=C\CCCC(=O)O)C[C@H]12 (some centres not stated)	6
CC#CCC(C)[C@H](O)/C=C/[C@H]1[C@H](O)C[C@]2(CCC#CCCCO)C/C(=C\CCCC(=O)O)C[C@H]12 (some centres not stated)	180
CC#CCC(C)[C@H](O)/C=C/[C@H]1[C@H](O)C[C@]2(C#CCCCO)C/C(=C/CCCC(=O)O)C[C@H]12 (some centres not stated)	300
CC#CCC(C)[C@H](O)/C=C/[C@H]1[C@H](O)C[C@]2(C#CCCC(=O)O)C/C(=C\CCCC(=O)O)C[C@H]12 (some centres not stated)	200

Consider the record given below.
-- ask # get_value(readout='KF', item= CC#CCC(C)[C@H](O)/C=C/[C@H]1[C@H](O)C[C@]2(CCCCCO)C/C(=C\CCCC(=O)O)C[C@H]12 (some centres not stated) )
-- reply 130
